test-protocol: AUC (0 to 24 hrs)in C57BL/6J mouse blood at 5 mg/kg, ip measured after 24 hrs by LC-MS/MS analysis
Type: ADME, organism-based
measure: AUC(0-t) at 24 h (ng·h/mL)
Quick note: give the figure in ng·h/mL, leave out the unit.

AUC(0-t) at 24 h lookup needed for `O=C(Cc1ccccn1)Nc1cccc(/C=C/c2ccc(NC(=O)NCC3CCOCC3)cc2)c1` , thanks. 122

---

test-protocol: Half-life in Sprague-Dawley rat at 20 mg/kg, po measured after 24 hrs
Format: ADME, organism-based
condition-parameters: in vivo
measure: half-life

Value lookup for half-life; key = `O=C(Cc1ccccn1)Nc1cccc(/C=C/c2ccc(NC(=O)NCC3CCOCC3)cc2)c1` 2.19 h

---

The following compounds are shown together with reported survival at 5 mg/kg values.
Test system: Mus musculus
test-protocol: Protection against LPS-induced sepsis in C57BL/6J mouse model assessed as survival rate at 5 mg/kg, iv measured after 48 hrs relative to control
Type: functional
Give a bare numeral; the unit % is implied.

# annotated cases, reported survival at 5 mg/kg shown
>  <compound>
O=C(Cc1cccnc1)Nc1cccc(/C=C/c2ccc(NC(=O)NCC3CCOCC3)cc2)c1

>  <result-units>
%

>  <survival at 5 mg/kg>
20

$$$$
>  <compound>
CC[C@H](C)C(=O)N1CCC(NC(=O)Nc2ccc(OC(F)(F)F)c(F)c2)CC1

>  <result-units>
%

>  <survival at 5 mg/kg>
0

$$$$
>  <compound>
O=C(Cc1ccccn1)Nc1cccc(/C=C/c2ccc(NC(=O)NCC3CCOCC3)cc2)c1

>  <result-units>
%

>  <survival at 5 mg/kg>
40

$$$$
>  <compound>
O=C(Cc1ccc2ncccc2c1)Nc1cccc(/C=C/c2ccc(NC(=O)NCC3CCOCC3)cc2)c1

>  <result-units>
%

>  <survival at 5 mg/kg>
0

$$$$

Next:
Which survival at 5 mg/kg value belongs to C[C@@H]1C[C@H]2[C@@H]3CCC4=CC(=O)C=C[C@]4(C)[C@@]3(F)[C@@H](O)C[C@]2(C)[C@@]1(O)C(=O)CO [DEXAMETHASONE] ? 100

---

Each item that follows carries a reported pIC50.
tested-target: Bifunctional epoxide hydrolase 2 (Mus musculus)
Sequence (P34914 whole entry): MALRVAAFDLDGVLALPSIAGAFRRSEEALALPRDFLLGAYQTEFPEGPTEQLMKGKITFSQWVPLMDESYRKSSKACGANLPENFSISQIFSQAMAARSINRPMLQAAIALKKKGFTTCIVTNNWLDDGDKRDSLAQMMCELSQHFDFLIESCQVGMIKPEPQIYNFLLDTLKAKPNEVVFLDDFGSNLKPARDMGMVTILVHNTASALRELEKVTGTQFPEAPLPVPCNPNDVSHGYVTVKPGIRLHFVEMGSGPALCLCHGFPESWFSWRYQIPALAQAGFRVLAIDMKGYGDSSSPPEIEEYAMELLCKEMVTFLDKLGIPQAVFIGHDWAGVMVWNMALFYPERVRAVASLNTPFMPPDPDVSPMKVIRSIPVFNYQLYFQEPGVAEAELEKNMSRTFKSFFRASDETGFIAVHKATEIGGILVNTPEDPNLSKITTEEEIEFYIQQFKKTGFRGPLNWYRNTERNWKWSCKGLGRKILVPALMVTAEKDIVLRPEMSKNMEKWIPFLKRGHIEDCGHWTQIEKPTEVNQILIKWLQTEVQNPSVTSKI
Units for pIC50: none; it is -log10 of a concentration expressed in mol/L.

Some solved cases for reference:
>  <test-smiles>
O=C(Cc1ccccn1)Nc1cccc(/C=C/c2ccc(NC(=O)NCC3CCOCC3)cc2)c1

>  <pIC50>
8.40

$$$$
>  <test-smiles>
CC(C)CNC(=O)Nc1cccc(/C=C/c2ccc3c(c2)OCO3)c1

>  <pIC50>
8.69

$$$$
>  <test-smiles>
COc1cc(/C=C/c2ccc(NC(=O)NCC(C)C)cc2)cc(OC)c1

>  <pIC50>
8.72

$$$$
>  <test-smiles>
O=C(NCC1CCOCC1)Nc1ccc(/C=C/c2cccc(NC(=O)c3ccccn3)c2)cc1

>  <pIC50>
8.07

$$$$
>  <test-smiles>
COc1cc(/C=C/c2cccc(NC(=O)NCC3CCOCC3)c2)cc(OC)c1

>  <pIC50>
7.04

$$$$
>  <test-smiles>
O=C(Cc1ccncc1)Nc1cccc(/C=C/c2ccc(NC(=O)NCC3CCOCC3)cc2)c1

>  <pIC50>
8.85

$$$$
>  <test-smiles>
CC(C)CNC(=O)Nc1ccc(/C=C/c2ccc3c(c2)OCO3)cc1

>  <pIC50>
8.57

$$$$
>  <test-smiles>
CN1CCC(NC(=O)Nc2ccc(/C=C/c3ccc4c(c3)OCO4)cc2)CC1

>  <pIC50>
5.59

$$$$

What is its pIC50 for Bifunctional epoxide hydrolase 2 (Mus musculus)? Entry: `COc1cc(/C=C/c2ccc(NC(=O)NCC3CCOCC3)cc2)cc(OC)c1` 8.60

`COc1cc(/C=C/c2ccc(NC(=O)NCC3CCN(C)CC3)cc2)cc(OC)c1` , same question. 6.04

Proceed to `O=C(NCC1CCOCC1)Nc1ccc(/C=C/c2ccc3c(c2)OCO3)cc1` 8.79

Consider next the molecule `COc1cc(/C=C/c2cccc(NC(=O)NCC(C)C)c2)cc(OC)c1` in the same way. 7.35

How about `O=C(Cc1cccnc1)Nc1cccc(/C=C/c2ccc(NC(=O)NCC3CCOCC3)cc2)c1` ? 8.69

Another: `O=C(NCC1CCOCC1)Nc1cccc(/C=C/c2ccc3c(c2)OCO3)c1` 8.56

Note, next up: `CC(C)CCNC(=O)Nc1ccc(/C=C/c2ccc3c(c2)OCO3)cc1` 8.91
